- system.under.test: T1, QP096 (human SIRPα V2 ECD(E31-R370)-flag-his) (human)
- T1 construct: the construct carries flag and his tags; also called SIRPαV2-Flag-his; Human SIRPα V2 (QP096)
- experiment.notes: binding ELISA, antigen coated
# 1 = EC50 below 1 ng/mL (exclusive); 0 = EC50 at/above 1 ng/mL

INSERT INTO measurements (binder, class_label) VALUES
  ('QP256253 (antibody, human IgG4, V domains shown, also called humanized antibody QP256253; QP163164 humanized clone) VH: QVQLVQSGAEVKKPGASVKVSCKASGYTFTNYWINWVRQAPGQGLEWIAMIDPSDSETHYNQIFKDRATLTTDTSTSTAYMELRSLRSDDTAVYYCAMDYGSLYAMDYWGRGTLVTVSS VL: DIVLTQSPDSLAVSLGERATINCRASKSVSSSGYNYIFWYQQKPGQPPKLLIYLASNLDSGVPDRFSGSGSGTDFTLTISSLQAEDVAVYYCQHSRELPTFGQGTKLEIK', 0),
  ('QP2561770 (antibody, human IgG4, V domains shown, Human IgG4 heavy constant region and kappa CL) VH: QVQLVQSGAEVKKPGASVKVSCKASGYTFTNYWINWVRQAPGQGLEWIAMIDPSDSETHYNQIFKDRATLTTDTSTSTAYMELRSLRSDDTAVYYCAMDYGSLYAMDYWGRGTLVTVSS VL: DIVLTQSPDSLAVSLGERATINCRASQSVRSSGYNWIFWYQQKPGQPPKLLIYLASNRDSGVPDRFSGSGSGTDFTLTISSLQAEDVAVYYCQESRELPTFGQGTKLEIK', 0),
  ('QP2561581 (antibody, human IgG4, V domains shown, Human IgG4 heavy constant region and kappa CL) VH: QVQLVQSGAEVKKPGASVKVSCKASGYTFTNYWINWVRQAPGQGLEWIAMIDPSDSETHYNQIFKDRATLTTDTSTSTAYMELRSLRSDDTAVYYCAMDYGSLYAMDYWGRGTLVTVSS VL: DIVLTQSPDSLAVSLGERATINCRASKSVSSSGYNYIFWYQQKPGQPPKLLIYLASNLDPGVPDRFSGSGSGTDFTLTISSLQAEDVAVYYCQHSRELPTFGQGTKLEIK', 1),
  ('QP2561589 (antibody, human IgG4, V domains shown, Human IgG4 heavy constant region and kappa CL) VH: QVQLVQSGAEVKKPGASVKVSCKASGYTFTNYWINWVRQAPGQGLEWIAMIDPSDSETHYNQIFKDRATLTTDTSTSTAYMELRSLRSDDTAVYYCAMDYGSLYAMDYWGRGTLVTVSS VL: DIVLTQSPDSLAVSLGERATINCRASKSVSSSGYNYIFWYQQKPGQPPKLLIYLASNLDSGVPDRFSGSGSGTDFTLTISSLQAEDVAVYYCQESWELPTFGQGTKLEIK', 0),
  ('QP256291 (antibody, human IgG4, V domains shown, Human IgG4 heavy constant region and kappa CL) VH: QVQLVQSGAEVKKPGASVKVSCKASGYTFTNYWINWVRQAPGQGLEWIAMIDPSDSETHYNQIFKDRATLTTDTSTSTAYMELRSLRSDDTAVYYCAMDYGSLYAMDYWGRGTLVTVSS VL: DIVLTQSPDSLAVSLGERATINCRASKSVGSSGYNWLFWYQQKPGQPPKLLIYLASNRDSGVPDRFSGSGSGTDFTLTISSLQAEDVAVYYCQHSRELPTFGQGTKLEIK', 0);

hey, is EC50 for QP2561586 (antibody, human IgG4, V domains shown, Human IgG4 heavy constant region and kappa CL) VH: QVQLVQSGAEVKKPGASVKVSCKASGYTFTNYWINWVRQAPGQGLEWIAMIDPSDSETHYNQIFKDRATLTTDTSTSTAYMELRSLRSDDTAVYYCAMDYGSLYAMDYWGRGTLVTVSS VL: DIVLTQSPDSLAVSLGERATINCRASKSVSSSGYNYIFWYQQKPGQPPKLLIYLASNLDSGVPDRFSGSGSGTDFTLTISSLQAEDVAVYYCQESRELPTFGQGTKLEIK lower than 1 ng/mL or not?
0
